- ASSAY SYSTEM: DNA repair nuclease/redox regulator APEX1 (Homo sapiens) (UniProt P27695)
- Sequence (P27695 whole entry, looked up): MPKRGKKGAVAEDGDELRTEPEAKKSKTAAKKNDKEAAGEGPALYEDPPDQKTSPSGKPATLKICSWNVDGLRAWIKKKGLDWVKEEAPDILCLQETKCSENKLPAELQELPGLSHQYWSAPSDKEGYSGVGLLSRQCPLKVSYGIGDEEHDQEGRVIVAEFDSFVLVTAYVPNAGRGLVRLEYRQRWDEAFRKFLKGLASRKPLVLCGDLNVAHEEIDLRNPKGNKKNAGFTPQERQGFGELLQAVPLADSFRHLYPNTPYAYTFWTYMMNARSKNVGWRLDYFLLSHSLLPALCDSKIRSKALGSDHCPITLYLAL
- EXPERIMENT: qHTS Assay for Inhibitors of the Human Apurinic/apyrimidinic Endonuclease 1 (APE1); also: nearly all actives have a fitted effect of over 55% in size
- ASSAY CONTEXT: recombinant APE1, TAMRA/BHQ-2 abasic DNA cleavage fluorescence; series mostly up to 65.8 µM
- Protocol: The apurinic/apyrimidinic endonuclease APE1 is the primary mammalian enzyme responsible for the removal of abasic (or AP) sites in DNA and functions centrally in the base excision DNA repair (BER) pathway. […] Three uL of enzyme solution (0.75 nM APE1 final concentration) was dispensed to 1536-well Greiner black solid bottom plates. […] The fluorescence intensity difference between the third and the first time points was used to compute reaction progress. […]
Screen size: about 350,000 compounds; about 1,200 (0.34%) were called active. Roughly 3% stayed inconclusive and do not appear here. Calls follow the shape of the dose curve; as a rule, active = well fitted inhibition curve with a large enough effect; inconclusive = small, poorly fitted or top-dose-only effect; inactive = no such curve, though single readings can be large or run the other way. The sample as a whole holds a higher share of actives than the screen did.
// classify into true (active), false (inactive)

*Q* In this assay, the call recorded for "CCCCC#N" was what?
*A* false

*Q* Then what about the compound CC(CCn1cccn1)NC(=O)CCc1nnc(CCc2ccccc2)o1 (stereo not drawn) ?
*A* false

*Q* Can you check O=C(OCC1O[C@@H](OC(=O)c2cc(O)c(O)c(O)c2)[C@@H](OC(=O)c2cc(O)c(O)c(O)c2)[C@@H](OC(=O)c2cc(O)c(O)c(O)c2)[C@@H]1OC(=O)c1cc(O)c(O)c(O)c1)c1cc(O)c(O)c(O)c1 (stereo partly drawn) next?
*A* true

*Q* Would you mind doing "Cc1ccnc(-n2c(C)cc(/C=C3\C(=O)NC(=S)N(C)C3=O)c2C)c1" as well?
*A* false

*Q* Another compound to look at: "Cc1c(C(=O)O)cccc1-n1c(C)cc(/C=C2\C(=O)NC(=O)N(c3ccc4c(c3)OCO4)C2=O)c1C"
*A* true

*Q* Now try "C=CCOC(=O)c1ccccc1C(=O)OCC=C" .
*A* false

*Q* Another compound to check: CCc1ccc(C2C(C#N)=C(N)Oc3n[nH]c(CC(=O)OC)c32)cc1 (stereo not drawn)
*A* false

*Q* Field entry: "CCN(CC)c1nc(C)cc(OP(=S)(OC)OC)n1"
*A* false
